Data provenance is ChEMBL document CHEMBL5291721.

molecular target: Voltage-dependent L-type calcium channel subunit alpha-1C (Rattus norvegicus, UniProt P22002); format: functional; also: assay procedure not described here
Sequence (P22002 whole entry): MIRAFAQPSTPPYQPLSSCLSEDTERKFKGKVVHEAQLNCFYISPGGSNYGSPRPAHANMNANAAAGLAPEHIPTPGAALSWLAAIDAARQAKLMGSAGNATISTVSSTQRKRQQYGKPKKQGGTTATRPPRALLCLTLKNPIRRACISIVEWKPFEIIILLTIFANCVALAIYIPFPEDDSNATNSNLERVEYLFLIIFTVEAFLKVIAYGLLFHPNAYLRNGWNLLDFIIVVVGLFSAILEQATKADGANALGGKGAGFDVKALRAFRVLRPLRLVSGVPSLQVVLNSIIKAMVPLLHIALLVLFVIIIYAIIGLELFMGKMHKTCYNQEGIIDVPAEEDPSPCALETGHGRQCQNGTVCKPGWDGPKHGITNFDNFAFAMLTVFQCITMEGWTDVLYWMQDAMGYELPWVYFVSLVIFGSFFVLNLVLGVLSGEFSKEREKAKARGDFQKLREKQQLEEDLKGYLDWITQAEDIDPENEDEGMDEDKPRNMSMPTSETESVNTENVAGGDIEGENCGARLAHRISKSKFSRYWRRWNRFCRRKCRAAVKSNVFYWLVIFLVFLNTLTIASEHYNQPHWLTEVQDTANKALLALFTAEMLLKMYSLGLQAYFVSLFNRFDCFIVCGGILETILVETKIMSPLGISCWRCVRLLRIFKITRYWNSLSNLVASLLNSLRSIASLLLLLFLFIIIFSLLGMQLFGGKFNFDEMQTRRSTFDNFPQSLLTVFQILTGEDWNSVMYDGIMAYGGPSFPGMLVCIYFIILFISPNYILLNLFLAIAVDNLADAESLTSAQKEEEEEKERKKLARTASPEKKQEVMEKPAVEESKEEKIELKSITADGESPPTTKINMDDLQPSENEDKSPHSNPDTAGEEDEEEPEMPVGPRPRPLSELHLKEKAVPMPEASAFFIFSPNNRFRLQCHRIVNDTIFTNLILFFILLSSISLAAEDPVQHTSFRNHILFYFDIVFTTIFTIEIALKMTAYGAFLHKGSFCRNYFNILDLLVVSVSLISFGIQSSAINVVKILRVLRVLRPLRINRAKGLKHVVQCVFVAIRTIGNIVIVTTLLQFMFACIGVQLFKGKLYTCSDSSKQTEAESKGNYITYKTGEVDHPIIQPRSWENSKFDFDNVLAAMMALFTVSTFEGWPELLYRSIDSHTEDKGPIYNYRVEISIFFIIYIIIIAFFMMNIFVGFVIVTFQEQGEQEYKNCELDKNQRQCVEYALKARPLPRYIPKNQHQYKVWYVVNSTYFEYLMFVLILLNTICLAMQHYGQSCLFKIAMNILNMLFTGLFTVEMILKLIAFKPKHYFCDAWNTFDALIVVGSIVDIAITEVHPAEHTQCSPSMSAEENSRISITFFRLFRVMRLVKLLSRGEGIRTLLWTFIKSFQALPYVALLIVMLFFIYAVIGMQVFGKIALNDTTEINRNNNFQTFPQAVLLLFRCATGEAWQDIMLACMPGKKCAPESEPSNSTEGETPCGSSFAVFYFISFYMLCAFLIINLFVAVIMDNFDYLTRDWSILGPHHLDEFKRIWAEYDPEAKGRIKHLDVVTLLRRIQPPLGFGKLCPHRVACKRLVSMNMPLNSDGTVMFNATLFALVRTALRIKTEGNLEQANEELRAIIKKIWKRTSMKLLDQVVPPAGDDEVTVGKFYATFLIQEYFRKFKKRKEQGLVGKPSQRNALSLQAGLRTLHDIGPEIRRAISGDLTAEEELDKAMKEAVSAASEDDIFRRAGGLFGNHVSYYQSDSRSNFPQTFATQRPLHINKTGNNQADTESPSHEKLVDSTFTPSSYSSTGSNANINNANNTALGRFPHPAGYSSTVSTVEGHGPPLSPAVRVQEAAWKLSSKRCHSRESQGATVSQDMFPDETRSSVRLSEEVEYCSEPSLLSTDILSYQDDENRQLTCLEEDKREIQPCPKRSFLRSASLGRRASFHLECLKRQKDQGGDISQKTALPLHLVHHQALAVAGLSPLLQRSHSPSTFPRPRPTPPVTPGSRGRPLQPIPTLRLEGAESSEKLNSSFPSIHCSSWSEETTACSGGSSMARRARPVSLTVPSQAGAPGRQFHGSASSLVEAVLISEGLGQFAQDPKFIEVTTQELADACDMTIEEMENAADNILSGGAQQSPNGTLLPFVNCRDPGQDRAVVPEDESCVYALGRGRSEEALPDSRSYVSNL
Provide the recorded AC50 for the entries that follow.

Would you mind giving AC50 for every molecule in the list below?
1. Cc1c(O)c(=O)ccn1C [DEFERIPRONE]
2. CCc1nn(CCCN2CCN(c3cccc(Cl)c3)CC2)c(=O)n1CCOc1ccccc1 [NEFAZODONE]
3. COc1ccc2cccc(CCNC(C)=O)c2c1 [AGOMELATINE]
4. O=C(O)c1cc(-c2ccc(F)cc2F)ccc1O [DIFLUNISAL]
5. Cc1ccc(-c2nc3ccc(C)cn3c2CC(=O)N(C)C)cc1 [ZOLPIDEM]
6. NS(=O)(=O)c1cc(-c2nnn[nH]2)c(NCc2cccs2)cc1Cl [AZOSEMIDE]
7. COC(=O)N[C@H](C(=O)N1CCC[C@H]1c1nc(-c2ccc(-c3ccc(-c4c[nH]c([C@@H]5CCCN5C(=O)[C@@H](NC(=O)OC)C(C)C)n4)cc3)cc2)c[nH]1)C(C)C
8. CC(=O)NS(=O)(=O)c1ccc(N)cc1 [SULFACETAMIDE]

Solution:
["> 30 µM", "> 10 µM", "> 10 µM", "> 10 µM", "> 30 µM", "> 30 µM", "> 30 µM", "> 10 µM"]

Quick batch: AC50 for everything below.
1. C#CCN(C)[C@H](C)Cc1ccccc1 [SELEGILINE]
2. NC(=O)c1cnccn1 [PYRAZINAMIDE]
3. CC(C(O)c1ccc(O)cc1)N1CCC(Cc2ccccc2)CC1 (configuration not stated) [IFENPRODIL]

Solution:
> 10 µM
> 30 µM
> 30 µM
